Where these numbers come from: PubChem BioAssay (NCI)

- System: OVCAR-4 ovarian
- Experimental protocol: NCI tumour cell line growth inhibition, 48 h
Reported metric: GI50

The value of GI50 measured for the molecule O=C(c1ccco1)c1nc2ccc(C(F)(F)F)cc2[n+]([O-])c1C(F)(F)F turned out to be 10.8 µM

The value of GI50 measured for the molecule N#CSCC1CC(O)(c2ccccc2)C(c2ccccc2)C(c2ccc(Cl)cc2)O1 (stereo unspecified) turned out to be 1.22 µM

The value of GI50 measured for the molecule CC(C)CC(=O)[O-].CC(C)CC(=O)[O-].N.N.N.N.[Co+3].[O-][Cl+3]([O-])([O-])[O-] turned out to be > 100 µM

The value of GI50 measured for the molecule O=C1/C(=C/c2ccc(Cl)cc2Cl)N=C(c2ccccc2)N1Cc1ccco1 turned out to be 21.2 µM

The value of GI50 measured for the molecule CC1OC(O[C@H]2C[C@@H](O)[C@]3(CO)[C@H]4[C@H](O)C[C@]5(C)[C@@H](C6=CC(=O)OC6)CC[C@]5(O)[C@@H]4CC[C@]3(O)C2)C(O)C(O)C1O (stereo partly specified) turned out to be 17.3 µM

The value of GI50 measured for the molecule O=C1/C(=C/c2ccc(Br)cc2)C=C(c2ccccc2)N1CCc1ccccc1 turned out to be 0.554 µM
